// data source = ChEMBL document CHEMBL4376896

test: Intrinsic clearance in Sprague-Dawley rat liver microsomes at 1 uM; format: ADME, Microsome; conditions: read-out: CLH
REPORTED METRIC: microsomal CLint at 1 µM
Just so you know, I need the unit written after the number.

Query: Tell me the measured microsomal CLint at 1 µM of CNC(=O)O[C@@H](CC(C)C)c1nc([C@H]2OC(=O)/C=C/C/C(C)=C/[C@@H](O)[C@@H](C)\C=C(C)/C=C(C)\C=C\[C@@H](O)[C@H](C)[C@H](OC)/C(C)=C/C=C/[C@@H]2C)cs1 , please.
Result: 301 µL/min/mg

* * *

assay: cells; conditions: Homo sapiens, 1321-N1, 72 h
Description: Growth inhibition of human 1321N1 cells incubated for 72 hrs by MTT assay
pIC50: −log10 of the molar value.
Please note: MET applies when pIC50 is 9 or greater, and NOT MET applies otherwise.

As a guide, the following entries are already answered.
[[record]]
molecule = "CNC(=O)O[C@@H](CC(C)C)c1nc([C@H]2OC(=O)[C@H](C)/C=C/C(C)=C/[C@@H](O)[C@@H](C)\\C=C(C)/C=C(C)\\C=C\\[C@@H](O)[C@H](C)[C@H](OC)/C(C)=C/C=C/[C@@H]2C)cs1"
group_label = "NOT MET"

[[record]]
molecule = "CNC(=O)O[C@@H](CC(C)C)c1nc([C@@H](O)[C@@H](C)/C=C/C=C(\\C)[C@@H](OC)[C@@H](C)[C@H](O)/C=C/C(C)=C\\C(C)=C/[C@H](C)[C@H](O)/C=C(C)/C=C/CC(=O)OC)cs1"
group_label = "NOT MET"

[[record]]
molecule = "CNC(=O)O[C@@H](CC(C)C)c1nc([C@H]2OC(=O)[C@@H](C)/C=C/C(C)=C/[C@@H](O)[C@@H](C)\\C=C(C)/C=C(C)\\C=C\\[C@@H](O)[C@H](C)[C@H](OC)/C(C)=C/C=C/[C@@H]2C)cs1"
group_label = "NOT MET"


# next molecule below
Query: Does CNC(=O)O[C@@H](CC(C)C)c1nc([C@H]2OC(=O)C/C=C/C(C)=C/[C@@H](O)[C@@H](C)\C=C(C)/C=C(C)\C=C\[C@@H](O)[C@H](C)[C@H](O)/C(C)=C/C=C/[C@@H]2C)cs1 have a reported pIC50 of at least 9?
Result: NOT MET
